system.name: SHP2 (Homo sapiens, UniProt Q06124)
protocol.text: SHP2 enzyme activity test in vitro;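 also: IC50 derived by variable-slope curve fitting of percent inhibition of SHP2 enzymatic activity plotted against log compound concentration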
reported.property: IC50 (nM)

(I) Cc1nc2c(F)cc(-c3nc(Nc4nccc(Sc5cnc(N6CCC7(CC6)CO[C@@H](C)[C@H]7N)cn5)c4C#N)ncc3F)cc2n1C(C)C
(II) Cc1nc2c(F)cc(-c3nc(Nc4ccc(Cl)c(Sc5cnc(N6CCC7(CC6)CO[C@@H](C)[C@H]7N)cn5)n4)ncc3F)cc2n1C(C)C
Could you tell me which of these two has the smaller IC50 figure? First: I Second: II I would appreciate it if you answered with the label of your choice. I
(I: 9 nM, II: 598 nM)

====

system.name: SHP2 (Homo sapiens, UniProt Q06124)
Sequence (Q06124 1-593): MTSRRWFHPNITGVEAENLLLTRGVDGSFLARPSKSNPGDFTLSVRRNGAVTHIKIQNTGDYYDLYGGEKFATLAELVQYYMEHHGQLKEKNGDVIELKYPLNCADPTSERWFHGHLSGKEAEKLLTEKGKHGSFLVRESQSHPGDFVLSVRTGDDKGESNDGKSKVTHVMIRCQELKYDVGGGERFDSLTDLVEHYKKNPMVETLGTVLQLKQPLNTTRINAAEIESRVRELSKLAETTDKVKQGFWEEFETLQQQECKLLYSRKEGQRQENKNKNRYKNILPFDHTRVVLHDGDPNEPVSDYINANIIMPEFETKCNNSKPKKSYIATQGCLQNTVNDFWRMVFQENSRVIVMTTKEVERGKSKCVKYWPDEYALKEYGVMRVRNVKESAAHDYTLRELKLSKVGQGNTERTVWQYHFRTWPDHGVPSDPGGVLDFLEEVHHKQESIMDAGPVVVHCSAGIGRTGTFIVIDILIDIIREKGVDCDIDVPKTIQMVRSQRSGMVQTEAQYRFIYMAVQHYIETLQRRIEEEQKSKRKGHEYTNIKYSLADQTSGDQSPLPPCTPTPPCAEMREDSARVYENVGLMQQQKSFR
protocol.text: SHP2 enzyme activity test in vitro
reported.property: IC50 (nM)

Example results:
given.smiles | reported.property | reported.result
CN(C)C(=O)c1cc2cnc(Nc3ccc(Sc4cnc(N5CCC6(CC5)Cc5ccccc5[C@H]6N)cn4)c(Cl)c3)nc2n1C1CCCC1 | IC50 | 57
Cc1nc2c(F)cc(-c3nc(Nc4cnc(Sc5cnc(N6CCC7(CC6)CO[C@@H](C)[C@H]7N)cn5)c(Cl)c4)ncc3F)cc2n1C(C)C | IC50 | 216
CN(C)C(=O)c1cc2cnc(Nc3nccc(Sc4cnc(N5CC[C@H](N)c6ccccc6C5)cn4)c3Cl)nc2n1C1CCCC1 | IC50 | 736
CN(C)C(=O)c1cc2cnc(Nc3nccc(Sc4cnc(N5CCC(C)(N)CC5)cn4)c3Cl)nc2n1C1CCCC1 | IC50 | 30
Cc1nc2c(F)cc(-c3nc(Nc4cccc(Sc5cnc(N6CCC7(CC6)CO[C@@H](C)[C@H]7N)cn5)c4Cl)ncc3F)cc2n1C(C)C | IC50 | 15
CN(C)C(=O)c1cc2cnc(Nc3nccc(Sc4cnc(N5CCC6(CC5)Cc5ccccc5[C@H]6N)cn4)c3Cl)nc2n1C1CCCC1 | IC50 | 4
Cc1nc2c(F)cc(-c3nc(Nc4nccc(Sc5cnc(N6CCC7(CC6)Cc6ccccc6[C@H]7N)cn5)c4Cl)ncc3F)cc2n1C(C)C | IC50 | 10

(A) Cc1nc2c(F)cc(-c3nc(Nc4cc(Sc5cnc(N6CCC7(CC6)CO[C@@H](C)[C@H]7N)cn5)ccn4)ncc3F)cc2n1C(C)C
(B) Cc1nc2c(F)cc(-c3nc(Nc4nccc(Sc5cnc(N6CCC7(CC6)CO[C@@H](C)[C@H]7N)cn5)c4Cl)ncc3F)cc2n1C(C)C
Quick check, higher IC50 between A and B ? When you have decided, please share the label of that item. A
(A: 48 nM, B: 5 nM)
